For each entry below, report its IC50 value.
- SYSTEM_TESTED: UniProtKB P56373
- Sequence (P56373 1-397): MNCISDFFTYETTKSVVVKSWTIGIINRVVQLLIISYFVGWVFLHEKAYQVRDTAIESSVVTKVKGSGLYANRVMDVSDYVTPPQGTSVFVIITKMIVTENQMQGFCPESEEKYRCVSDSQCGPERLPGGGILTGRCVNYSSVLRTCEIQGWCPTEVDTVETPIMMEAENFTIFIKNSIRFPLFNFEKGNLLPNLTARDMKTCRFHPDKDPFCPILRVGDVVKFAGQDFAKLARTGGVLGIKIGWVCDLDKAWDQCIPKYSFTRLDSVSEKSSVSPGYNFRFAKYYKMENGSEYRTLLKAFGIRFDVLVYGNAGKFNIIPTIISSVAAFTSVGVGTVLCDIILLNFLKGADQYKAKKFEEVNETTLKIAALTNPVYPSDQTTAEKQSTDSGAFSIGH
- ASSAY_NOTES: In vitro electrophysiology assay for P2X3 (Sophion Qube automated patch-clamp, α,β-MeATP agonist)
- Type: cell-based
- CONDITIONS_USED: Table 2; whole-cell patch clamp, 800 nM α,β-MeATP, 10 min antagonist preincubation; read-out: h P2X3 (pIC50 range of activity) (converted)

Solved cases (3 shown):
Cc1ccc(CNc2nncc3ccc(-c4ccc(F)cc4)cc23)nn1 [Example 3]
< 316 nM
Cc1ccc([C@@H](C)Nc2nnc(C3CCOCC3)c3ccc(-c4ccc(F)cc4)cc23)nn1 [Example 7]
< 316 nM
Fc1ccc(-c2ccc3cnnc(NCC4CC4)c3c2)cc1 [Example 2]
316 to 3160 nM

// batch mode: one IC50 value per listed entry
1. Cc1ccc(C(C)Nc2nnc(C3CCOCC3)c3ccc(-c4ccn(C)n4)cc23)nn1 (centres unmarked) [Example 17]
2. Cc1ccc([C@@H](C)Nc2nnc(C3CC3)c3ccc(-c4ccc(F)cc4)cc23)nn1 [Example 5]
3. Cc1ccc(CNc2nnc(CC3CCOCC3)c3ccc(-c4ncc(C)s4)cc23)nn1 [Example 15]

1. 316 to 3160 nM
2. < 316 nM
3. 316 to 3160 nM

// batch mode: one IC50 value per listed entry
1. Cc1cnc(-c2ccc3c(CC4CCOCC4)nnc(NCc4nc(C(F)(F)F)no4)c3c2)s1 [Example 14]
2. C[C@@H](Nc1nnc(C2CCOCC2)c2ccc(-c3ccc(F)cc3)cc12)c1cnc(C(F)(F)F)nc1 [Example 6]

["316 to 3160 nM", "316 to 3160 nM"]
